B1: EPB41L3 (parent)
chain: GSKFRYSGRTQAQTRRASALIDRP

Variants of: B1
assay name: protein stability index of a GFP-peptide fusion (GPS, HEK-293T) (PSI 1-6); higher = more stable;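 also: lentivirally expressed fusions sorted by FACS into six bins by GFP to DsRed ratio, PSI derived from sequencing read proportions per bin multiplied by bin number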
settings: c terminus: a fixed tail appended
I'd be grateful if you could share measured protein stability index for these entries.
One number for each entry.

Here is how some variants turned out for protein stability index.
>>> obs_value("P24C")
3.06
>>> obs_value("T10F")
2.68
>>> obs_value("R15A")
3.25

Give protein stability index for all variants that follow.
1. L20M
2. R16E
3. T14P
4. R15T
5. D22S
6. Q11E

[3.59, 3.34, 2.62, 3.58, 3.11, 3.29]

Values from the supplement of paper PMC10567573
